test: Cytotoxicity test, CellTiter-Glo luminescent cell viability assay; conditions: dog, MDCK cells
experimental readout: viability at 36 h, 100 µM
Put down the number, then write its unit next to it.

Problem: What viability at 36 h, 100 µM value was documented for this molecule, "C=C(C)[C@@H]1CC[C@]2(C(=O)O)CC[C@]3(C)[C@H](CC[C@@H]4[C@@]5(C)CC[C@H](O)C(C)(C)[C@@H]5CC[C@]43C)[C@@H]12" ?
Result: 8.5%
